Attribute: chromatographic logP
EXPERIMENTAL_PROTOCOL: log P determination by HPLC (EEC Directive 79/831 Annex V.A8)
Assay type: physicochemical
ASSAY_CONDITIONS: log P
Protocol: The measurements were carried out using an Agilent 1100 LC system with a 50*4.6 Zorbax Eclipse C18 1.8 μm column (oven temperature 55° C., flow rate 2.0 ml/min). The following mobile phases were used: Mobile phase A: acetonitrile+1000 μl of formic acid/l Mobile phase B: Millipore water+900 μl of formic acid/l
Output: the number by itself.

Solved entries:
>>> df
                                   compound  readout_value
0  Cc1cc(I)cc(C(=O)NCC2CC2)c1NC(=O)c1cc(Cn2nnc(C(F)(F)F)n2)nn1-c1ncccc1Cl           3.78
1  CCC(C)NC(=O)c1cc(Cl)cc(C)c1NC(=O)c1cc(Cn2nnc(C(F)(F)F)n2)nn1-c1ncccc1Cl (stereo not shown)           3.74

For CNC(=O)c1cc(Cl)cc(C)c1NC(=O)c1cc(Cn2nnc(C(F)(F)C(F)(F)F)n2)nn1-c1ncccc1Cl , what is its reported chromatographic logP?
3.39

For NC(=O)c1cc(Cl)cc(Cl)c1NC(=O)c1cc(Cn2nnc(C(F)F)n2)nn1-c1ncccc1Cl , what is its reported chromatographic logP?
2.31

For O=C(NC1CCC1)c1cc(Cl)cc(Cl)c1NC(=O)c1cc(Cn2nnc(C(F)(F)F)n2)nn1-c1ncccc1Cl , what is its reported chromatographic logP?
3.51

For Cc1cc(C#N)cc(C(=O)NC2CCCCC2)c1NC(=O)c1cc(Cn2nnc(C(F)(F)F)n2)nn1-c1ncccc1Cl , what is its reported chromatographic logP?
3.63

For Cc1cc(C#N)cc(C(=O)NCC(C)C)c1NC(=O)c1cc(Cn2nnc(C(F)(F)F)n2)nn1-c1ncccc1Cl , what is its reported chromatographic logP?
3.37
